# Tested on: Plasmodium falciparum
# Assay: Antimalarial activity against multidrug-resistant Plasmodium falciparum W2 by SYBR green-based assay
# Format: functional, organism-based
Endpoint Label: IC50 (nM)
Please respond with the number in nM and leave the unit unwritten.

Molecule	Endpoint Label	Readout Value
COc1cc(C)c2c(Oc3cccc(C(F)(F)F)c3)c(OC)cc(NC(C)CCCN)c2n1 (configuration not stated)	IC50	217

The record that follows has no IC50 shown yet.
For COc1cc(NC(C)CCCN)c2ncccc2c1 (configuration not stated) on Plasmodium falciparum, measured IC50 was 1470
